biological target: Human acetycholinesterase (hAChE) (Homo sapiens, UniProt P22303); construct: purchased Sigma; experiment: hAChE inhibition assay, modified Ellman's colorimetric protocol; type: biochemical; conditions: human AChE, Ellman method, average of three sets of assays; read-out: IC50 Concentration
Sequence (P22303 32-614): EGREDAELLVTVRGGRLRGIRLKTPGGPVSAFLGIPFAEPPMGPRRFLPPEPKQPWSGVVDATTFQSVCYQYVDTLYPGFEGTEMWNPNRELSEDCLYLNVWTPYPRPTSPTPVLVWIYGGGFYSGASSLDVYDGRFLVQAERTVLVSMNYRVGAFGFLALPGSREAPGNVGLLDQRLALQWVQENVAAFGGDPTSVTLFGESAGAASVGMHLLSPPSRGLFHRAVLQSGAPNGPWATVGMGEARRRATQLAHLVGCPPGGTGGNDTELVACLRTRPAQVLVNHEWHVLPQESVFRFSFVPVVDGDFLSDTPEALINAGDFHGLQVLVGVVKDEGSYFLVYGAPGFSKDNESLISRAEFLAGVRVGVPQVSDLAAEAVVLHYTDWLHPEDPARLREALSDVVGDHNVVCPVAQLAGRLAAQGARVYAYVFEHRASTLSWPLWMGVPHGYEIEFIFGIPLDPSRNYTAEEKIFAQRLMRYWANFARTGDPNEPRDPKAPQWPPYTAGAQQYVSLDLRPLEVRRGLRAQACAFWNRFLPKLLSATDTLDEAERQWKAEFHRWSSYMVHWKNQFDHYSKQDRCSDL
readout label: pIC50
Value format note: pIC50 is -log10 of concentration (mol/L); just state the number.

Consider the following illustrative entries.
compound | pIC50
COc1cc(OC)c2c(=O)cc(-c3ccccc3)oc2c1/C=C/C(C)(C)O | 4.46
CC(=O)Oc1cc(OC(C)=O)c2c(=O)cc(-c3ccccc3)oc2c1/C=C/C(C)(C)O | 4.55
CC(C)(O)/C=C/c1c(OC(=O)c2ccccc2)cc(OC(=O)c2ccccc2)c2c(=O)cc(-c3ccccc3)oc12 | 4.97

Please look at the following compound next.
Query `CCOc1cc(OCC)c2c(=O)cc(-c3ccccc3)oc2c1/C=C/C(C)(C)O` yields pIC50 of 4.45

###

target: Human acetycholinesterase (hAChE) (Homo sapiens, UniProt P22303); construct: purchased Sigma; test: hAChE inhibition assay, modified Ellman's colorimetric protocol; format: biochemical
readout label: pIC50
Value format note: pIC50 is -log10 of concentration (mol/L); just state the number.

Query CC(C)(O)/C=C/c1c(OC(=O)c2ccc([N+](=O)[O-])cc2)cc(OC(=O)c2ccc([N+](=O)[O-])cc2)c2c(=O)cc(-c3ccccc3)oc12 [Compound 4d] yields pIC50 of 4.99

###

target: Human acetycholinesterase (hAChE) (Homo sapiens); construct: purchased Sigma; experiment: hAChE enzyme kinetics, Lineweaver-Burk and secondary plots; type: biochemical
readout label: Ki (µM)
Report as a plain number; the unit µM is understood.

Let me check: CC(C)(O)/C=C/c1c(OC(=O)c2ccc([N+](=O)[O-])cc2)cc(OC(=O)c2ccc([N+](=O)[O-])cc2)c2c(=O)cc(-c3ccccc3)oc12 [Compound 4d] , system Human acetycholinesterase (hAChE) (Homo sapiens), measured Ki is 8.25
